meta.source: ChEMBL document CHEMBL4052776

- Organism: Homo sapiens
- assay summary: Selectivity ratio of IC50 for PTK6 (unknown origin) to IC50 for BTK (unknown origin)
outcome measure: Ratio IC50
One number for each entry.

Answered cases to consult:
Recorded Ratio IC50 of COCC(=O)N1CCO[C@@H](c2nc(-c3ccc(C(=O)Nc4cc(C(F)(F)F)ccn4)cc3F)c3c(N)nccn23)C1 , please.
209

Param item = CC(C)C(=O)N1CCO[C@@H](c2nc(-c3ccc(C(=O)Nc4cc(C(F)(F)F)ccn4)cc3F)c3c(N)nccn23)C1 ; retrieve measured Ratio IC50.
393

Requested read-out: Ratio IC50. Entry: Nc1nccn2c([C@@H]3CCCN(C4CCOCC4)C3)nc(-c3ccc(C(=O)Nc4cc(C(F)(F)F)ccn4)cc3F)c12
58

---
Recorded Ratio IC50 for COCC(=O)N1CCC[C@@H](c2nc(-c3ccc(C(=O)Nc4cc(C(F)(F)F)ccn4)cc3F)c3c(N)nccn23)C1 , please?
273

====

Endpoint: pIC50. System: Receptor tyrosine-protein kinase erbB-4 (Homo sapiens, UniProt Q15303). Items follow.
Sequence (Q15303 whole entry): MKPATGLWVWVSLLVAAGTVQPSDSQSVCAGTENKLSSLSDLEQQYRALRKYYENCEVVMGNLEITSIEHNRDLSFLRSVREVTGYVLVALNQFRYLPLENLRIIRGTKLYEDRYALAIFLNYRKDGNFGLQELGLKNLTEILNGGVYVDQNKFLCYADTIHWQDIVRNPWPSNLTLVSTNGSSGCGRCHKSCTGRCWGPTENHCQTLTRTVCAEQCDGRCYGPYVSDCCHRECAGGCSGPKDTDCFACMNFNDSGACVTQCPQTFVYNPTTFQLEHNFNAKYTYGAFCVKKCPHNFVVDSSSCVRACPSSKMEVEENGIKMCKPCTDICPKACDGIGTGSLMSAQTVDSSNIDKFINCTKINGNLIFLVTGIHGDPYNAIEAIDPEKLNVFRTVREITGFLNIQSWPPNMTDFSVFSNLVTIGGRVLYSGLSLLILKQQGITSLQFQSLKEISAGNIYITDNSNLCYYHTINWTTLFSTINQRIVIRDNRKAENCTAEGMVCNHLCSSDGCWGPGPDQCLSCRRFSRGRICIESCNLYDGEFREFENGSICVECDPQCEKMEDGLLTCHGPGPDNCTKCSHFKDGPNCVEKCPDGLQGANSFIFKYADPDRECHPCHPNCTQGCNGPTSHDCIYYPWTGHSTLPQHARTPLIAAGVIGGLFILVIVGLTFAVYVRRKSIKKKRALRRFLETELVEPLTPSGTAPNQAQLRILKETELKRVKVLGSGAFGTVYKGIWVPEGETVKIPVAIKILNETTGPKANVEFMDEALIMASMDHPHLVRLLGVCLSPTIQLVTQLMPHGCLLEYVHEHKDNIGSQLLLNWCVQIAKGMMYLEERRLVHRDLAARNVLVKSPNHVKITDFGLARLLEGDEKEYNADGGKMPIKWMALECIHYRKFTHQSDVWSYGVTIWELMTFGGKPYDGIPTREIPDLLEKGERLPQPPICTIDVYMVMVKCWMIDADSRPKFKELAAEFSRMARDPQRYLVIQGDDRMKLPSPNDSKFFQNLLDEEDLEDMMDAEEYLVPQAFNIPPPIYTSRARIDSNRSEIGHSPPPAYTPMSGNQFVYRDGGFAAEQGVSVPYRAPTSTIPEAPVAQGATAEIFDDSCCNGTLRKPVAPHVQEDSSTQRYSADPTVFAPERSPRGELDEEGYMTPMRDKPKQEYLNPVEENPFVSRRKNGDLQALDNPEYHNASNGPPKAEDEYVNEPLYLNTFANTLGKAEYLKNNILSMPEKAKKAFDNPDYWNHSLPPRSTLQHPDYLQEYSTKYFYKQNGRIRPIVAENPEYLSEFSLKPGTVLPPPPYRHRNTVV
Answers are plain numbers, as −log10 of the molar value.

Find the recorded pIC50 belonging to COCC(=O)N1CCC[C@@H](c2nc(-c3ccc(C(=O)Nc4cc(C(F)(F)F)ccn4)cc3F)c3c(N)nccn23)C1 and report it.
7.15

Here is the next item to consider.
What does the record list as pIC50 for Nc1nccn2c([C@@H]3CCCN(C4CCOCC4)C3)nc(-c3ccc(C(=O)Nc4cc(C(F)(F)F)ccn4)cc3F)c12 ?
7.23

====

# IC50 measurements, system: Tyrosine-protein kinase Fgr (Homo sapiens, UniProt P09769)
# Sequence (P09769 whole entry): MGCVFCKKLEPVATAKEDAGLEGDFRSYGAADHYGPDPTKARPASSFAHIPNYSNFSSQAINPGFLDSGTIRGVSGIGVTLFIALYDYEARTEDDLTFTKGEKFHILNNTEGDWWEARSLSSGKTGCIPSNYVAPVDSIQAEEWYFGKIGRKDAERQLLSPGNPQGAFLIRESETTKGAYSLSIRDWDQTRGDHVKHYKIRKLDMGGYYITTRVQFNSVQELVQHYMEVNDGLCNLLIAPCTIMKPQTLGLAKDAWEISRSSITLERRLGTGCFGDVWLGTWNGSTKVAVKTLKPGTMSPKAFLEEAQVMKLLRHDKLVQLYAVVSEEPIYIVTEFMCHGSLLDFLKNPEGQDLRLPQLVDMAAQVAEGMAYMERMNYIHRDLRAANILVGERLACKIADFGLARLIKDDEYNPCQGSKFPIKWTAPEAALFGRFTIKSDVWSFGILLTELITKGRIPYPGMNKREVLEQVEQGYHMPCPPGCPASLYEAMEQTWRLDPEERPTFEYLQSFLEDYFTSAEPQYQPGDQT
Please format your answer as a value with the unit trailing.

Looking for the measured IC50 of Nc1nccn2c([C@@H]3CCCN(C4CCOCC4)C3)nc(-c3ccc(C(=O)Nc4cc(C(F)(F)F)ccn4)cc3F)c12 , can you help?
0.022 µM

---
Which IC50 is reported for this molecule? CC(C)C(=O)N1CCC[C@@H](c2nc(-c3ccc(C(=O)Nc4cc(C(F)(F)F)ccn4)cc3F)c3c(N)nccn23)C1
0.203 µM

====

Can you tell me Ratio IC50 for the items I'm about to list?
- Species: Homo sapiens
- assay summary: Selectivity ratio of IC50 for TEC (unknown origin) to IC50 for BTK (unknown origin)
Numbers only.

Fill in the blank: the reported Ratio IC50 of Nc1nccn2c([C@@H]3CCCN(C4CCOCC4)C3)nc(-c3ccc(C(=O)Nc4cc(C(F)(F)F)ccn4)cc3F)c12 is ____.
205

Tell me the measured Ratio IC50 of COCC(=O)N1CCO[C@@H](c2nc(-c3ccc(C(=O)Nc4cc(C(F)(F)F)ccn4)cc3F)c3c(N)nccn23)C1 , please.
626

Your task in this section: give Ratio IC50 for each listed record.
1. COCC(=O)N1CCC[C@@H](c2nc(-c3ccc(C(=O)Nc4cc(C(F)(F)F)ccn4)cc3F)c3c(N)nccn23)C1
2. CC(C)C(=O)N1CCO[C@@H](c2nc(-c3ccc(C(=O)Nc4cc(C(F)(F)F)ccn4)cc3F)c3c(N)nccn23)C1

1. 287
2. 973

====

- Species on record: Homo sapiens
- assay summary: Selectivity ratio of IC50 for TXK (unknown origin) to IC50 for BTK (unknown origin)
Record form. Attribute: Ratio IC50. Fill in for each entry.
One number for each entry.

Reference set (3 entries):
Which Ratio IC50 is listed for CC(C)C(=O)N1CCO[C@@H](c2nc(-c3ccc(C(=O)Nc4cc(C(F)(F)F)ccn4)cc3F)c3c(N)nccn23)C1 ?
1060

Report Ratio IC50 for COCC(=O)N1CCC[C@@H](c2nc(-c3ccc(C(=O)Nc4cc(C(F)(F)F)ccn4)cc3F)c3c(N)nccn23)C1 please.
203

Which value of Ratio IC50 has been reported for COCC(=O)N1CCO[C@@H](c2nc(-c3ccc(C(=O)Nc4cc(C(F)(F)F)ccn4)cc3F)c3c(N)nccn23)C1 in the records?
691

Continuing:
Fill blank: measured Ratio IC50 of the molecule Nc1nccn2c([C@@H]3CCCN(C4CCOCC4)C3)nc(-c3ccc(C(=O)Nc4cc(C(F)(F)F)ccn4)cc3F)c12 is ____.
278
